Test system: HL-60(TB) leukemia
assayInfo: NCI tumour cell line growth inhibition, 48 h
Here, each record is paired with measured TGI data.
experimentalEndpoint: TGI

>  <molecule>
Nc1ccc(C2=N/C(=C\c3cccc(N)c3)C(=O)O2)cc1

>  <measuredValue>
> 100 µM

$$$$
>  <molecule>
C=C1C(=O)OC2C1CC(OC(C)=O)/C(C)=C/CCC1(C)OC21 (stereo unspecified)

>  <measuredValue>
> 100 µM

$$$$
>  <molecule>
CC1=NC(C)(COC(=O)C2(C)NC(C)(CO)CO2)COC1=O (stereo unspecified)

>  <measuredValue>
> 100 µM

$$$$
>  <molecule>
COCn1cnc2c(=O)nc(SC)n(-c3ccccc3)c21

>  <measuredValue>
> 100 µM

$$$$
>  <molecule>
C/C(=N\NC(=S)N1CCCC1)c1nc2ncccc2[nH]1

>  <measuredValue>
> 100 µM

$$$$
>  <molecule>
COc1cc(/C=C2\CCC/C(=C\c3ccc(OCC4CO4)c(OC)c3)C2=O)ccc1OCC1CO1 (stereo unspecified)

>  <measuredValue>
> 100 µM

$$$$
>  <molecule>
NC(=O)CNc1ccc([As]=[As]c2ccc(NCC(N)=O)cc2)cc1 (stereo unspecified)

>  <measuredValue>
9.26 µM

$$$$
>  <molecule>
CCCCC1Cc2cc(O)ccc2-c2nc3cc(O)ccc3n21 (stereo unspecified) (tested in a mixture with another compound)

>  <measuredValue>
41.9 µM

$$$$
>  <molecule>
CCC[CH2][Sn]1([CH2]CCC)[O]CC(COc2c(Cl)cc(Cl)cc2Cl)[O]1 (stereo unspecified)

>  <measuredValue>
0.673 µM

$$$$
>  <molecule>
Cc1ccc(NC(=O)C(=O)C2C(=O)NC(=O)NC2=O)cc1C

>  <measuredValue>
> 100 µM

$$$$
>  <molecule>
COc1ccc(-c2nn(-c3cccc(Cl)c3)cc2-c2nc(N)[nH]c(=O)c2C#N)cc1

>  <measuredValue>
14.2 µM

$$$$
>  <molecule>
O=C1C=C(Nc2ccc(S(=O)(=O)Nc3nccs3)cc2)c2ccccc2C1=O

>  <measuredValue>
59.8 µM

$$$$
>  <molecule>
O=C1/C(=C/N2N=C(c3ccc4ccccc4c3)CC2c2ccccc2O)SC(=S)N1c1cccnc1 (stereo unspecified)

>  <measuredValue>
> 100 µM

$$$$
>  <molecule>
O=C(Nc1ccc(Cl)cc1)Nc1nccs1

>  <measuredValue>
10.2 µM

$$$$
>  <molecule>
C=CC1(CC[C@]2(c3ccc(OC)c(OC)c3)C=[N+]([O-])O[C@H](O[C@@H]3CCCC[C@H]3C(C)(C)c3ccccc3)C2)OCC(C)(C)CO1

>  <measuredValue>
4.81 µM

$$$$
>  <molecule>
COc1ccc(/C=N/n2cnc3c(c2=O)SC(=C(C#N)C#N)N3c2ccccc2)cc1

>  <measuredValue>
> 100 µM

$$$$
>  <molecule>
Cn1cc(S(=O)(=O)N2CCC3=Cc4c(cnn4-c4ccc(F)cc4)C[C@]3(C(=O)c3cc(C(F)(F)F)ccn3)C2)cn1

>  <measuredValue>
> 100 µM

$$$$
>  <molecule>
NC(N)=N/N=C(\N=Nc1ccccc1)c1ccc(Cl)cc1

>  <measuredValue>
3.85 µM

$$$$
>  <molecule>
O=C1c2ccccc2C(=O)N1C/C=N/NS(=O)(=O)c1ccc(Br)cc1

>  <measuredValue>
> 100 µM

$$$$
>  <molecule>
O=Cc1ccc(-c2ccc(-c3ccc(CO)s3)o2)s1

>  <measuredValue>
> 22.3 µM

$$$$
>  <molecule>
CCOC(=O)C1=C(Nc2ccc(Br)cc2)OCC1=O

>  <measuredValue>
33.9 µM

$$$$
>  <molecule>
N#Cc1cc2c(cc1Cl)Sc1nnc(Nc3ccccc3)n1S2(=O)=O

>  <measuredValue>
13.6 µM

$$$$
>  <molecule>
CN1CCc2c(sc3[nH]c(=S)[nH]c(=S)c23)C1

>  <measuredValue>
> 100 µM

$$$$
>  <molecule>
CCOC(=O)CCC(NC(=O)c1ccc(NCc2ccc3nc(-c4ccccc4)c(Cl)nc3c2)cc1)C(=O)OCC (stereo unspecified)

>  <measuredValue>
> 100 µM

$$$$
>  <molecule>
Cc1ccc2occ/c(=N\Nc3ccccc3)c2c1

>  <measuredValue>
> 100 µM

$$$$
>  <molecule>
COc1ccc(N2C(=O)C(=O)N(c3ccc(N=Nc4ccccc4)cc3)C2=S)cc1

>  <measuredValue>
> 100 µM

$$$$
>  <molecule>
CC(C)(C)c1cc(C(=O)/C=C/c2ccc(C(=O)O)cc2)cc(C(C)(C)C)c1

>  <measuredValue>
> 100 µM

$$$$
>  <molecule>
O=C1OCC2OC(=O)c3cc(O)c(O)c(O)c3-c3c(O)c(O)c(O)c4c3C(=O)OC(C2OC(=O)c2cc(O)c(O)c(O)c2-c2c1cc(O)c(O)c2O)C1OC(=O)C2C4=C(O)C(=O)C23Oc2cc(O)c4c(c2[C@H]13)O[C@H](c1ccc(O)c(O)c1)[C@@H](O)C4 (stereo partly specified)

>  <measuredValue>
51.8 µM

$$$$
>  <molecule>
CSc1ccc2c(cc1=O)[C@@H](NC(=O)c1cc(O)c(O)c(O)c1)CCc1cc(O)c(O)c(O)c1-2

>  <measuredValue>
40.7 µM

$$$$
>  <molecule>
COC(=O)c1c[nH]cc1CCCCc1c[nH]cc1C(=O)OC

>  <measuredValue>
> 100 µM

$$$$
>  <molecule>
CCc1cccc(C)c1NC(=O)CC1C(=O)Nc2ccccc2S1=O (stereo unspecified)

>  <measuredValue>
74.9 µM

$$$$
>  <molecule>
C[n+]1c2ccccc2c(NC(CCCN=C(N)N)C(=O)O)c2ccccc21 (stereo unspecified)

>  <measuredValue>
> 100 µM

$$$$
>  <molecule>
O=C1CCSCCC(=O)Nc2ccccc2N1

>  <measuredValue>
> 100 µM

$$$$
>  <molecule>
CS(=O)(=O)N1CC(CCl)c2ccc(O)cc21 (stereo unspecified)

>  <measuredValue>
6.19 µM

$$$$
>  <molecule>
CC1(C)O[C@H]2OC(CO)C(N=[N+]=[N-])[C@H]2O1 (stereo partly specified)

>  <measuredValue>
> 100 µM

$$$$
>  <molecule>
S=C1NCCN1C(=S)Nc1ccccc1

>  <measuredValue>
> 100 µM

$$$$
>  <molecule>
CC1CC(Nc2ccc(Br)cc2)N(C(=O)c2ccc(Br)cc2)O1 (stereo unspecified)

>  <measuredValue>
> 10 µM

$$$$
>  <molecule>
O=c1cc(NNc2cccc(Cl)c2)[nH]c(=O)[nH]1

>  <measuredValue>
43.9 µM

$$$$
>  <molecule>
Oc1ccc(N=Nc2nccs2)c(O)c1

>  <measuredValue>
> 100 µM

$$$$
>  <molecule>
NCCCN(CCCN)CCc1cn(C(=O)c2ccccc2)cn1

>  <measuredValue>
10.8 µM

$$$$
>  <molecule>
COc1ccc(-c2cc(-c3ccc(Nc4ccnc5cc(Cl)ccc45)cc3)nc(N3CCOCC3)n2)cc1

>  <measuredValue>
> 100 µM

$$$$

====

Test system: SK-MEL-2 melanoma
assayInfo: NCI tumour cell line growth inhibition, 48 h
Here, each record is paired with measured TGI data.

>  <compound>
NC(N)=N/N=C(\N=Nc1ccccc1)c1ccc(Cl)cc1

>  <TGI>
13.1 µM

$$$$
>  <compound>
Cc1c(Cl)cccc1NC(=O)c1cccc([N+](=O)[O-])c1O

>  <TGI>
36.9 µM

$$$$
>  <compound>
C[Si](C)(C)CN1C(=O)c2ccccc2C1(O)c1ccccc1 (stereo not drawn)

>  <TGI>
> 100 µM

$$$$
>  <compound>
COc1cc(/C=N\O[Si](C)(C)C(C)(C)C)ccc1O[Si](C)(C)C(C)(C)C

>  <TGI>
> 100 µM

$$$$
>  <compound>
CCc1cccc(C)c1NC(=O)CC1C(=O)Nc2ccccc2S1=O (stereo not drawn)

>  <TGI>
> 100 µM

$$$$
>  <compound>
COc1ccc2nc3cc(Cl)ccc3c(Sc3ccc(NC(C)=O)cc3)c2c1

>  <TGI>
> 26.4 µM

$$$$
>  <compound>
CC1=NC(C)(COC(=O)C2(C)NC(C)(CO)CO2)COC1=O (stereo not drawn)

>  <TGI>
> 100 µM

$$$$
>  <compound>
CCCCCCCCCCCCCCCCCCC1=C(O)C(=O)C=C(OC)C1=O

>  <TGI>
76.5 µM

$$$$
>  <compound>
O=C(N[C@@H](Cc1coc2ccccc12)B(O)O)[C@@H]1C[C@H]2CC[C@@H]1O2

>  <TGI>
> 100 µM

$$$$
>  <compound>
COc1ccc(-c2cc(Nc3ccnc(N4CCOCC4)n3)on2)cc1

>  <TGI>
29.5 µM

$$$$
>  <compound>
COc1cc2c3c(n(CCCN(C)CCO)c(=O)c2cc1OC)-c1cc2c(cc1C3=O)OCO2

>  <TGI>
> 100 µM

$$$$
>  <compound>
CCCC(=O)[O-].CCCC(=O)[O-].NCCN.NCCN.[Co+3].[O-][Cl+3]([O-])([O-])[O-]

>  <TGI>
> 100 µM

$$$$
>  <compound>
O=C(N/N=C/c1ccc(O)cc1O)c1cccnc1

>  <TGI>
60.8 µM

$$$$
>  <compound>
O=c1[nH]c2nc3ccccc3c(=O)n2/c1=C/c1cccs1

>  <TGI>
> 100 µM

$$$$
>  <compound>
CN1CCN(/C(N)=C(\C#N)C(=O)Nc2ccc(Cl)cc2)CC1

>  <TGI>
> 100 µM

$$$$
>  <compound>
CC1CC(Nc2ccc(Br)cc2)N(C(=O)c2ccc(Br)cc2)O1 (stereo not drawn)

>  <TGI>
> 10 µM

$$$$
>  <compound>
CCOC(=O)C1=C(Nc2ccc(Br)cc2)OCC1=O

>  <TGI>
> 100 µM

$$$$
>  <compound>
CCOC(=O)c1sc(NC(=O)COc2cccc(/C=C3\CCc4cc(OC)ccc4C3=O)c2)nc1C

>  <TGI>
> 100 µM

$$$$
>  <compound>
Cc1ccc2[c](c1)[Sn]([c]1ccccc1)([c]1ccccc1)[c]1cc(C)ccc1N2C

>  <TGI>
51.9 µM

$$$$
>  <compound>
Cn1cc(-c2csc(-c3cn(C)c4ccc(F)cc34)n2)c2cnccc21

>  <TGI>
3.38 µM

$$$$
>  <compound>
Cc1ccc(NC(=O)C(=O)C2C(=O)NC(=O)NC2=O)cc1C

>  <TGI>
> 100 µM

$$$$
>  <compound>
COc1cccc(CC(=O)N2CCN(CCCc3ccccc3)CC2)c1

>  <TGI>
> 100 µM

$$$$
>  <compound>
Cc1sc2c(c1C)C(c1ccc(Cl)cc1)=N[C@@H](CC(=O)Nc1ccc(OCCOCCOCCOCCNc3cccc4c3C(=O)N(C3CCC(=O)NC3=O)C4=O)cc1)c1nnc(C)n1-2 (stereo partly drawn)

>  <TGI>
> 100 µM

$$$$
>  <compound>
C/C(=N\NC(=S)N1CCCC1)c1nc2ncccc2[nH]1

>  <TGI>
46.8 µM

$$$$
>  <compound>
Cc1ccc(CSC(N)=Nc2ccccc2)cc1C

>  <TGI>
33.6 µM

$$$$
>  <compound>
O=C1CCSCCC(=O)Nc2ccccc2N1

>  <TGI>
> 100 µM

$$$$
>  <compound>
Cc1ccc(C)c(N2C(=O)C(=O)C(c3nc4ccccc4o3)/C(=N/N)C2=O)c1 (stereo not drawn)

>  <TGI>
> 100 µM

$$$$
>  <compound>
CCOc1ccc(N=Cc2c3ccccc3nc3ccccc23)cc1

>  <TGI>
> 100 µM

$$$$
>  <compound>
CNCCn1c(=O)c2cc(OC)c(OC)cc2c2cnc3cc4c(cc3c21)OCO4

>  <TGI>
4.91 µM

$$$$
>  <compound>
C(=Nc1ccc2c(c1)Cc1ccccc1-2)c1ccccn1

>  <TGI>
> 100 µM

$$$$
>  <compound>
COc1ccc(/C(Cl)=C(\C#N)c2ccc(OC)c(OC)c2)cc1OC

>  <TGI>
> 100 µM

$$$$
>  <compound>
CC(=O)OCCOCNC(=S)N/N=C/c1ccc([N+](=O)[O-])s1

>  <TGI>
> 100 µM

$$$$
>  <compound>
NCCCNCCCCN1CCOC1=O

>  <TGI>
> 100 µM

$$$$
>  <compound>
CC(=O)Nc1c(C(=N)C#N)ncn1CCO

>  <TGI>
> 100 µM

$$$$
>  <compound>
COc1cc(/C=C2\CCC/C(=C\c3ccc(OCC4CO4)c(OC)c3)C2=O)ccc1OCC1CO1 (stereo not drawn)

>  <TGI>
5.37 µM

$$$$
>  <compound>
NCCCOc1cc2ccccc2cc1C(=O)NCCCOc1cc2ccccc2cc1C(=O)Nc1ccc(Cl)cc1O

>  <TGI>
2.91 µM

$$$$
>  <compound>
Cc1ccc(C)c(N2C(=O)C(=O)C(c3nc4ccccc4o3)/C(=N\NC(=O)c3ccccc3O)C2=O)c1 (stereo not drawn)

>  <TGI>
> 100 µM

$$$$
>  <compound>
Cc1[nH]n(-c2nc(O)c(-c3ccccc3)c(=O)[nH]2)c(=O)c1CCO

>  <TGI>
> 100 µM

$$$$
>  <compound>
CC(Cl)CN1c2ccccc2Sc2ccc(Cl)cc21 (stereo not drawn)

>  <TGI>
> 10 µM

$$$$
>  <compound>
O=C1c2ccccc2C(=O)N1C/C=N/NS(=O)(=O)c1ccc(Br)cc1

>  <TGI>
> 100 µM

$$$$
>  <compound>
CC(=O)OCC1OC(n2c(C)c(N=Nc3ccc(Cl)cc3)c(C)c(C#N)c2=S)C(OC(C)=O)C(OC(C)=O)C1OC(C)=O (stereo not drawn)

>  <TGI>
92.1 µM

$$$$
>  <compound>
N/C(=N\S(=O)(=O)c1ccc(-c2ncccc2C(F)(F)F)s1)Nc1ccc(Cl)cc1

>  <TGI>
29.3 µM

$$$$
>  <compound>
COc1cc2nc(-c3cccs3)nc(Cl)c2cc1OC

>  <TGI>
> 100 µM

$$$$
